- SYSTEM UNDER TEST: κ-receptors (Cavia porcellus, UniProt P41144)
- Construct: A raw preparation from brain membrane was made; tissue Japan SLC
- Sequence (P41144 whole entry): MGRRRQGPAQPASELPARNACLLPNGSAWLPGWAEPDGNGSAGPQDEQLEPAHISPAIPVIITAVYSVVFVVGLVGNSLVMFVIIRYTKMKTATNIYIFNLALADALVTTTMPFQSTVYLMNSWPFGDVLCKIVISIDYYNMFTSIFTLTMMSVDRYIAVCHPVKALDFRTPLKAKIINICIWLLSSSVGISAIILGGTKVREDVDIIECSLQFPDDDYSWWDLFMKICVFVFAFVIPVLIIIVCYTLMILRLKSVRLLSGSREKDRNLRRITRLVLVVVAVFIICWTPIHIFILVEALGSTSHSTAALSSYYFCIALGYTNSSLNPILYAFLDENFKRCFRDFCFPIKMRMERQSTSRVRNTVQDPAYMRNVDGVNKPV
- PROTOCOL SUMMARY: biochemical
Counter-ions that a name gives are not always drawn.
# T = IC50 below 1 nM (exclusive); F = IC50 at/above 1 nM

1. O=C1C[C@@H](C(=O)N2CCCC[C@H]2CN2CCCC2)c2cc(Cl)c(Cl)cc21 (relative stereo) [Example 4-D2] ... F
2. O=C(Cc1ccc(Cl)c(Cl)c1)N1CCSCC1CN1CCCC1 (centres unmarked) [Example 17, hydrochloride] ... F
3. O=C1CC(C(=O)N2CCCCC2CN2CCCC2)c2cc(Cl)c(Cl)cc21 (centres unmarked) ... F
4. O=C1C[C@H](C(=O)N2CCCC[C@H]2CN2CCCC2)c2cc(Cl)c(Cl)cc21 [Example 2-E1] ... T
5. O=C1C[C@@H](C(=O)N2CCCC[C@H]2CN2CCCC2)c2cc(Cl)c(Cl)cc21 [Example 2-E2] ... F
6. O=C1C[C@H](C(=O)N2CCCC[C@H]2CN2CCCC2)c2cc(Cl)c(Cl)cc21 (relative stereo) [Example 4-D1] ... F
7. O=C1CC(C(=O)N2CCSCC2CN2CCCC2)c2cc(Cl)c(Cl)cc21 (centres unmarked) [Example 36, hydrochloride] ... F
8. O=C([C@H]1CCc2cc(Cl)c(Cl)cc21)N1CCSC[C@@H]1CN1CCCC1 (relative stereo) [Example 41-D1] ... T
